testMethodNotes: method code SF-AS, from DOI: 10.1248/cpb.32.4084, PMID: 6099228
recordedConditions: pH 7.4
Give logD for every item shown.

compound "O=C(CN1CCCCC1)Nc1ccc(Cl)c(Cl)c1" , logD observed: 3.65

compound "COc1ccc(NC(=O)CN2CCCCC2)cc1" , logD observed: 2.52

###

Give logP for every item shown.
testMethodNotes: method code SF-HPLC, from Yu, G.; Xu, X. (1993). Determination of the 1-octanol/water partition coefficient of nitro-PAHs. Huanjing Huaxue, 12(4)299-303.

molecule "O=[N+]([O-])c1ccc2ccc3cccc4ccc1c2c34" , logP observed: 5.06

molecule "O=[N+]([O-])c1cccc(-c2ccccc2)c1" , logP observed: 3.69

molecule "O=[N+]([O-])c1c2ccccc2cc2ccccc12" , logP observed: 4.21
